- TARGET ENTITY: T1, EsCas13d, nuclease-dead (Eubacterium siraeum, UniProt B0MS50, R295A;H300A;R849A;H854A)
- T1 sequence: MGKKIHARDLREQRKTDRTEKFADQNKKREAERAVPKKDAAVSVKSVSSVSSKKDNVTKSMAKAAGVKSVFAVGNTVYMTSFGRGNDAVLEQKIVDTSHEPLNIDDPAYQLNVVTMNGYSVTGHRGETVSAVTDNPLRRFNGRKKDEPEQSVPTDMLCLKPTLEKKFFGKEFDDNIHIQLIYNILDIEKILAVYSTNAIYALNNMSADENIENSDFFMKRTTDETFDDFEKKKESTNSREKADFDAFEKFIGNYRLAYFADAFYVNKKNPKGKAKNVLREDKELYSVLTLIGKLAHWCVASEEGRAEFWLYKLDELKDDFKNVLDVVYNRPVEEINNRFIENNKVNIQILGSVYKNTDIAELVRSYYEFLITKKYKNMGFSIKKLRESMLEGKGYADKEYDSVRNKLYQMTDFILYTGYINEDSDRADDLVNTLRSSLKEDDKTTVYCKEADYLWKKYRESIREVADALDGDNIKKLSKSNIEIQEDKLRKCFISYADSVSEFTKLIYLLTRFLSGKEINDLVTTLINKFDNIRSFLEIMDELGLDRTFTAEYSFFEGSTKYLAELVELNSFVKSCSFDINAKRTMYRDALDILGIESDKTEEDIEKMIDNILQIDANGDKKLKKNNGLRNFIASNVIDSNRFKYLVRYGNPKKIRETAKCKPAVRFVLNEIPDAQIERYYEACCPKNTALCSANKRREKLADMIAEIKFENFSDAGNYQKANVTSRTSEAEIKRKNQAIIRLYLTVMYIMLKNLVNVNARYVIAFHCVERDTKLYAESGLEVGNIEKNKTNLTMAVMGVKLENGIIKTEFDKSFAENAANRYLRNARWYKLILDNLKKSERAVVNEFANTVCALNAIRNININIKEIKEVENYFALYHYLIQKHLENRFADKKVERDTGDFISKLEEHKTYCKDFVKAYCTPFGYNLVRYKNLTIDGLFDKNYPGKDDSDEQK
- PROTOCOL SUMMARY: crRNA (strand 1, pre-loaded); Mg2+; 40 mM Tris-HCl pH 7.5, 150 mM NaCl, 6 mM MgCl2, 1 mM DTT, 0.1% Tween-20, 0.2 mg/ml BSA; 25 C; 10 min per concentration, then washed
- CONDITIONS: tags: His6-TwinStrep-SUMO cleaved; N-terminal SNAP kept (SNAP-Surface 488); label: 3' end held by stalled T7 RNA polymerase
MEASURED METRIC: pKd
Please express pKd as -log10 of the molar concentration.

Consider the worked cases shown below.
| BINDER | pKd |
| --- | --- |
| target 2 MT 5'PFS CAC 3'PFS CAU (mixed) RNA 1: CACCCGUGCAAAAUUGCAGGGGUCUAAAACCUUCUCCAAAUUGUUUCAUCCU RNA 2: GGGAAUGGAUCCACAUCUACGAAUUCCACAGGAUGAAACAAUUUGGAGAAGCAUAGAUCGGAAGAGCACACGU | 8.46 |
| target 1 insC 3' of 15,insU 3' of 15 (mixed) RNA 1: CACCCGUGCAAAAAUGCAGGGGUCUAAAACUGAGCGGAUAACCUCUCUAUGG RNA 2: GGGAAUGGAUCCACAUCUACGAAUUCGUACCAUAGAGCUAGGUUAUCCGCUCACCGAGAUCGGAAGAGCACACGU | 7.63 |
| target 3 G3C,C6G (mixed) RNA 1: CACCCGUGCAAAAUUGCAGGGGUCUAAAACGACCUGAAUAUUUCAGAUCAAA RNA 2: GGGAAUGGAUCCACAUCUACGAAUUCGUUUUUGAUCUGAAAUAUUGAGCUCUGCAGAUCGGAAGAGCACACGU | 7.47 |
| target 2 MT 5'PFS GUA 3'PFS CCG (mixed) RNA 1: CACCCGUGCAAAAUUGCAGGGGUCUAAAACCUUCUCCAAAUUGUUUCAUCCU RNA 2: GGGAAUGGAUCCACAUCUACGAAUUCGUAAGGAUGAAACAAUUUGGAGAAGCCGAGAUCGGAAGAGCACACGU | 8.02 |
| target 1 insG 3' of 8,insA 3' of 7 (mixed) RNA 1: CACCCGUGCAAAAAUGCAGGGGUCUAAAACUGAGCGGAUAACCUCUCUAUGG RNA 2: GGGAAUGGAUCCACAUCUACGAAUUCGUACCAUAGAGAGGUUAUGCACGCUCACCGAGAUCGGAAGAGCACACGU | 7.97 |

Problem: Record request: pKd value, item target 1 G5U,C7A (mixed) RNA 1: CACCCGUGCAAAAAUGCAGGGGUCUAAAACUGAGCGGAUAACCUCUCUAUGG RNA 2: GGGAAUGGAUCCACAUCUACGAAUUCGUACCAUAGAGAGGUUAUACUCUCACCGAGAUCGGAAGAGCACACGU
Result: 7.25

Problem: Record request: pKd value, item target 1 C7A,U19G (mixed) RNA 1: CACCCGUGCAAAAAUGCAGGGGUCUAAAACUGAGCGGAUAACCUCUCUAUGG RNA 2: GGGAAUGGAUCCACAUCUACGAAUUCGUACCAGAGAGAGGUUAUACGCUCACCGAGAUCGGAAGAGCACACGU
Result: 7.26
